Test system: PPARg:RXRa DBDmut IVT, anti-RXR (DBD mutation: RXRa K156A/R161A, NR concentration 270 nM, RXRa partner concentration 90 nM)
METHOD: PBM binding z-score (relative to random genomic background probes); higher = stronger binding; sequences stand for … in GC…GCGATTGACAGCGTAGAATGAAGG
If the reported PBM binding z-score equals or exceeds 0.4, assign rule met. If not, assign rule not met.

Data request: Reported PBM binding z-score at or above 0.4? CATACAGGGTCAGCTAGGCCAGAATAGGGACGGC
Data returned: rule met

Data request: Quick check: does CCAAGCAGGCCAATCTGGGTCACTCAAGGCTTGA have PBM binding z-score greater than or equal to 0.4?
Data returned: rule met

Data request: Please tell me: is the sequence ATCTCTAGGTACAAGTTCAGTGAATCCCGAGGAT at or over 0.4 in terms of PBM binding z-score?
Data returned: rule not met

Data request: Given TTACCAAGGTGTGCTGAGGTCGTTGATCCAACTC , state whether its PBM binding z-score is at least 0.4.
Data returned: rule not met

Data request: Please tell me: is the sequence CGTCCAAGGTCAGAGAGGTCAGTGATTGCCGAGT at or over 0.4 in terms of PBM binding z-score?
Data returned: rule met

Data request: Tell me whether PBM binding z-score is at least 0.4 here: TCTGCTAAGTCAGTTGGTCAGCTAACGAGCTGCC
Data returned: rule met

Data request: Could you please find out whether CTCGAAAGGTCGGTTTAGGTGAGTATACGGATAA has PBM binding z-score that meets 0.4 or exceeds it?
Data returned: rule not met

Data request: Check this sequence for PBM binding z-score at or above 0.4: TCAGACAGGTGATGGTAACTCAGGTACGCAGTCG
Data returned: rule met

Data request: Test whether the sequence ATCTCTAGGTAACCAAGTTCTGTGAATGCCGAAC records PBM binding z-score of 0.4 or higher.
Data returned: rule met

Data request: Is the recorded value of PBM binding z-score equal to or greater than 0.4 for this sequence? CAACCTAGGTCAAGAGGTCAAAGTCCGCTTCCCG
Data returned: rule met

Data request: Identify whether the reported PBM binding z-score of the following sequence is 0.4 or greater: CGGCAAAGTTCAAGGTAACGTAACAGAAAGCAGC
Data returned: rule met

Data request: Reported PBM binding z-score reaches at least 0.4 for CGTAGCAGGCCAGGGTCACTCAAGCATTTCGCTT ?
Data returned: rule met

Data request: Decide: PBM binding z-score of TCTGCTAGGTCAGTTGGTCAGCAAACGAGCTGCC >= 0.4?
Data returned: rule met

Data request: Hi team, for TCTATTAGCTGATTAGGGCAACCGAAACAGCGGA , is the recorded PBM binding z-score at or above 0.4?
Data returned: rule met

Data request: Answer whether PBM binding z-score of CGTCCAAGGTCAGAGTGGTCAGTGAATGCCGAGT is greater than or equal to 0.4.
Data returned: rule met

Data request: Reported PBM binding z-score at or above 0.4? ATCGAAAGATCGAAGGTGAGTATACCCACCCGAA
Data returned: rule not met

Data request: Is PBM binding z-score for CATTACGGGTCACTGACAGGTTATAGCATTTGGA at or above 0.4?
Data returned: rule met

Data request: Quick check: does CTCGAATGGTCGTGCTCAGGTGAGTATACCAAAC have PBM binding z-score greater than or equal to 0.4?
Data returned: rule not met

Data request: Quick check: does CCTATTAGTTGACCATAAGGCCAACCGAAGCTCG have PBM binding z-score greater than or equal to 0.4?
Data returned: rule met

Data request: Kindly determine if PBM binding z-score recorded for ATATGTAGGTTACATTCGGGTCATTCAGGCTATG is above or exactly 0.4.
Data returned: rule met

Data request: Check if PBM binding z-score >= 0.4 (inclusive). Item: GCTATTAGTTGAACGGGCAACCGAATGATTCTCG
Data returned: rule met

Data request: Tell me whether PBM binding z-score is at least 0.4 here: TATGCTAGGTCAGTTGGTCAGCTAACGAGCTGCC
Data returned: rule met

Data request: Would you say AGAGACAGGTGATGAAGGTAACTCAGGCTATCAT shows PBM binding z-score at minimum 0.4?
Data returned: rule not met

Data request: Kindly determine if PBM binding z-score recorded for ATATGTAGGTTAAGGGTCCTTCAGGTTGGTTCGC is above or exactly 0.4.
Data returned: rule met

Data request: Would you say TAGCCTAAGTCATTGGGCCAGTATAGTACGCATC shows PBM binding z-score at minimum 0.4?
Data returned: rule not met
